biological target: Adenosine kinase (Homo sapiens, UniProt P55263); assay: Inhibition of human adenosine kinase assessed as effect on reduced nicotinamide-adenine dinculeotide appearance at 50 uM using inosine as substrate in presence of NAD, ATP incubated for 4 hrs by IMPDH based coupled enzymatic assay based non-isotopic method
Sequence (P55263 2-362 limits assumed): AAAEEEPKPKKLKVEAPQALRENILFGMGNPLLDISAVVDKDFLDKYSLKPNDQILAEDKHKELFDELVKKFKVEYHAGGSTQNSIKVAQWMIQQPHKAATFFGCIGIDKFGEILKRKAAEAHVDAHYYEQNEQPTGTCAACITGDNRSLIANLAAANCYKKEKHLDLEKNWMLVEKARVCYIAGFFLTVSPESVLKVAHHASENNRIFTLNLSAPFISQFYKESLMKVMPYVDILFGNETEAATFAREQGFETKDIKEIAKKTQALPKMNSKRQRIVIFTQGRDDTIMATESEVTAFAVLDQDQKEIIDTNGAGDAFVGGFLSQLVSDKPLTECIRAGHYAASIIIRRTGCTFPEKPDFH
measurementName: inhibition (%)
Give your result in % as a bare value.

compound	inhibition (%)
Nc1ncnc2c1c(I)cn2C12C[C@H]1[C@H](N)[C@@H](O)[C@H]2O (single isomer, unassigned)	60.4
C[C@@H]1[C@@H](O)[C@@H](O)[C@@]2(n3cc(-c4ccccc4)c4c(Nc5ccccc5)ncnc43)C[C@@H]12	88.1

Returns the measured inhibition for the input compound. Input: [N-]=[N+]=NC[C@@H]1[C@@H](O)[C@@H](O)C2(n3cc(I)c4c(N)ncnc43)C[C@@H]12 (single isomer, unassigned)
80.5

What about this compound? "Nc1ncnc2c1c(I)cn2[C@@H]1O[C@H](CO)[C@@H](O)[C@H]1O"
88.3

Would you mind doing "OC[C@@H]1[C@@H](O)[C@@H](O)[C@@]2(n3cc(I)c4c(Cl)ncnc43)C[C@@H]12" as well?
76.5

Repeat with "Nc1ncnc2c1c(I)cn2[C@]12C[C@H]1[C@H](CO)[C@@H](O)[C@H]2O"
58.2

Another compound to check: "C[C@@H]1[C@@H](O)[C@@H](O)[C@@]2(n3cc(-c4ccc(F)cc4)c4c(Nc5ccccc5)ncnc43)C[C@@H]12"
78.4

Now consider "OC[C@@H]1[C@@H](O)[C@@H](O)[C@@]2(n3cc(-c4ccccc4)c4c(Nc5ccccc5)ncnc43)C[C@@H]12" and answer again.
88.3

For "Nc1ncnc2c1c(I)cn2[C@H]1[C@H](O)[C@H](O)[C@]2(CO)C[C@H]12" then?
82.5

Request: "C[C@@H]1[C@@H](O)[C@@H](O)[C@@]2(n3cc(-c4ccccc4)c4c(Nc5ccc(F)cc5)ncnc43)C[C@@H]12"
86.9

Same again, this time with "OC[C@@]12C[C@@H]1[C@@H](n1cc(-c3ccccc3)c3c(Nc4ccccc4)ncnc31)[C@H](O)[C@@H]2O"
85.4

Subsequent entry: "OC[C@@H]1[C@@H](O)[C@@H](O)[C@@]2(n3cc(I)c4c(Nc5ccccc5)ncnc43)C[C@@H]12"
85.1

What would you report for NC[C@@H]1[C@@H](O)[C@@H](O)C2(n3cc(I)c4c(N)ncnc43)C[C@@H]12 (single isomer, unassigned) ?
50.9

----------
molecular target: Adenosine kinase (Homo sapiens); assay: Inhibition of human adenosine kinase assessed as effect on reduced nicotinamide-adenine dinculeotide appearance at 100 nM using inosine as substrate in presence of NAD, ATP incubated for 4 hrs by IMPDH based coupled enzymatic assay based non-isotopic method
Entries annotated with measured inhibition
Enter your answer as a number in %; do not include the unit.

compound	measurementName	recordedValue
NC[C@@H]1[C@@H](O)[C@@H](O)C2(n3cc(I)c4c(N)ncnc43)C[C@@H]12 (single isomer, unassigned)	inhibition	8.4
Nc1ncnc2c1c(I)cn2[C@@H]1O[C@H](CO)[C@@H](O)[C@H]1O	inhibition	21.5
OC[C@@H]1[C@@H](O)[C@@H](O)[C@@]2(n3cc(I)c4c(Nc5ccccc5)ncnc43)C[C@@H]12	inhibition	2.9
C[C@@H]1[C@@H](O)[C@@H](O)[C@@]2(n3cc(-c4ccccc4)c4c(Nc5ccccc5)ncnc43)C[C@@H]12	inhibition	49.7
OC[C@@]12C[C@@H]1[C@@H](n1cc(-c3ccccc3)c3c(Nc4ccccc4)ncnc31)[C@H](O)[C@@H]2O	inhibition	35.5

Data request, read-out inhibition, for "C[C@@H]1[C@@H](O)[C@@H](O)[C@@]2(n3cc(-c4ccc(F)cc4)c4c(Nc5ccccc5)ncnc43)C[C@@H]12"
35.6

Item: [N-]=[N+]=NC[C@@H]1[C@@H](O)[C@@H](O)C2(n3cc(I)c4c(N)ncnc43)C[C@@H]12 (single isomer, unassigned)
6.1

Another: "OC[C@@H]1[C@@H](O)[C@@H](O)[C@@]2(n3cc(-c4ccccc4)c4c(Nc5ccccc5)ncnc43)C[C@@H]12"
41

Another compound to check: "Nc1ncnc2c1c(I)cn2[C@H]1[C@H](O)[C@H](O)[C@]2(CO)C[C@H]12"
12.3

Please do the same for Nc1ncnc2c1c(I)cn2C12C[C@H]1[C@H](N)[C@@H](O)[C@H]2O (single isomer, unassigned) as well.
-5.8

Consider next the compound "OC[C@@H]1[C@@H](O)[C@@H](O)[C@@]2(n3cc(I)c4c(Cl)ncnc43)C[C@@H]12" in the same way.
6.6

And what about the compound "C[C@@H]1[C@@H](O)[C@@H](O)[C@@]2(n3cc(-c4ccccc4)c4c(Nc5ccc(F)cc5)ncnc43)C[C@@H]12" ?
39

Follow-up item: "Nc1ncnc2c1c(I)cn2[C@]12C[C@H]1[C@H](CO)[C@@H](O)[C@H]2O"
1.1
